These data points were gathered from ChEMBL document CHEMBL1156232.

system: Staphylococcus aureus; assay: Antibacterial activity against Staphylococcus aureus after 24 hrs by microdilution susceptibility method; format: functional
Listed next: entries and their corresponding MIC.
Note: unit µg/mL is implicit; provide only the numeric part.

[in] Request the reported MIC associated with C=CCSc1nc2ccc(N(C/C=C/c3ccccc3)C/C=C/c3ccccc3)cc2c(=O)n1Cc1ccccc1
[out] 4

[in] Request the reported MIC associated with Nc1ccc2ncn(Cc3ccccc3)c(=O)c2c1
[out] 2

[in] Request the reported MIC associated with O=c1c2cc([N+](=O)[O-])ccc2nc(S)n1Cc1ccccc1
[out] 4

* * *

Biological target: Dihydrofolate reductase (Bos taurus, UniProt P00376)
Sequence (P00376 whole entry): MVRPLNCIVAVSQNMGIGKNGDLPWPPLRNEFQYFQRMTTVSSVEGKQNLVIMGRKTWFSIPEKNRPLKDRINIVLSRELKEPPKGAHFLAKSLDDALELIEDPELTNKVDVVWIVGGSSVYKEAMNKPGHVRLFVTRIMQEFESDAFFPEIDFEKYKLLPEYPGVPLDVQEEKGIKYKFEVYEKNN
The label is criterion met for IC50 below 10 µM and criterion not met for IC50 equal to or exceeding 10 µM.

Some solved cases for reference:
C=CCN(C)c1ccc2nc(SC)n(Cc3ccccc3)c(=O)c2c1 : criterion met
C=CC(=O)Nc1ccc2nc(SC/C=C/c3ccccc3)n(Cc3ccccc3)c(=O)c2c1 : criterion met
C=CCNc1ccc2nc(SC)n(Cc3ccccc3)c(=O)c2c1 : criterion met

[in] Is IC50 of C=CCN(CC=C)c1ccc2nc(SC)n(Cc3ccccc3)c(=O)c2c1 strictly below 10 µM?
[out] criterion met

[in] Is IC50 of CSc1nc2ccc(C)cc2c(=O)n1Cc1ccccc1 strictly below 10 µM?
[out] criterion not met
